From: PubChem BioAssay (NCI)

Listed next: entries and their corresponding TGI.
Test system: OVCAR-4 ovarian
Experiment Notes: NCI tumour cell line growth inhibition, 48 h
All answers are understood in µM, so give the number only.

| Smiles Notation | Units | Reading |
| --- | --- | --- |
| COc1ccc2c(c1)C(=O)c1c-2n(CCCN2CCOCC2)c(=O)c2cc([N+](=O)[O-])ccc12 | µM | 6.55 |

Okay, next one:
So what's the measured TGI for this one? "Cc1cc(C)c2c(N)c3cccc(C)c3nc2n1" 8.1

* * *

System: HOP-62 NSCLC
Experiment Notes: NCI tumour cell line growth inhibition, 48 h
Listed next: entries and their corresponding TGI.

| Smiles Notation | System Under Test | TGI |
| --- | --- | --- |
| COC(=O)c1cccc(C(=O)OC)c1 | HOP-62 NSCLC | > 100 µM |

So what's the measured TGI for this one? "COc1ccc(-c2ccccc2)cc1-c1c(Nc2cc(Cl)cc(Cl)c2O)c(=O)c1=O" > 50 µM

So what's the measured TGI for this one? "CN(C)S(=O)(=O)c1ccc(Nc2ccc(O)c3c2C(=O)c2c([N+](=O)[O-])ccc(O)c2C3=O)cc1" > 100 µM

So what's the measured TGI for this one? "COc1ccc(-c2csc3c2-n2cccc2C3=O)cc1O" > 100 µM
